test system: KM12 colon; assay: NCI tumour cell line growth inhibition, 48 h
experimental endpoint: TGI

compound: CC1=C[C@@H]2[C@@H](CC(CO)=C[C@H]3[C@@H]4C(C)(C)[C@]4(OCC(C)C)[C@H](OCC(C)C)[C@@H](C)[C@]23O)C1=O
assayed system: KM12 colon
value: > 5.69 µM

What does the record list as TGI for COC1CC(OC)C(O)C(CO)O1 (stereo unspecified) ?
> 100 µM

Param item: O=C(C=Nc1ccccc1C(=O)[O-])c1cccs1.O=C(C=Nc1ccccc1C(=O)[O-])c1cccs1.[Zn+2]
> 100 µM

Param item: CCN(CC)CC[n+]1cc2cc(OC)c(OC)cc2c2ccc3cc4c(cc3c21)OCO4
2.46 µM

Param item: O=C1COCCN1C(=O)c1ccccc1Cl
> 100 µM
